test: growth inhibitors of H69AR lung tumor, primary screen, human, duplicate replicates (AID 580); conditions: H69AR lung tumor cells viability, ATP luminescence, 72 h; at 10 µM;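 further: 100% = mean luminescence of untreated wells and 0% = no signal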
Activity calls are given as the source filed them.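 How the source made its calls: active means viability at or under a set limit in both replicates, limit being median viability minus 3 SD (cut at about 48% in these data, passing the limit was not always enough); inconclusive means at or under the limit in just one replicate; inactive means at or above the limit in both replicates.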
Outcome codes: active, inactive

MOLECULE	CAT
CC(C)c1nnc(NC(=O)c2cnccn2)s1	inactive
C=CCNC(=O)CSc1ccc(Cl)cc1	inactive
Cc1ccc(NC(=O)c2ccccc2O)cc1	inactive
COc1cc(C(c2sc3nc(C)nn3c2O)N2CC(C)CC(C)C2)cc(OC)c1OC (configuration not stated)	inactive
Cc1[nH]c(=O)[nH]c(=O)c1S(=O)(=O)N(C)Cc1ccccc1	inactive
COc1ccc(OC)c(NC(=O)C2CCN(c3cc(-c4ccccc4)nc4ncnn34)CC2)c1	inactive
O=C(c1ccc(-c2cccc(C(F)(F)F)c2)o1)N1CCOCC1	inactive
CCn1c(SCC(=O)Nc2nnc(C)s2)nnc1-c1ccncc1	inactive
Cc1cc(O)c(C(C)C)cc1N=C1CSC(=O)N1	inactive
CCCCP(=O)(CCCC)c1ccccc1C(=O)O	inactive
CCOC(=O)N1CCN(S(=O)(=O)c2ccc(F)c(C(=O)Nc3cc(C)cc(C)c3)c2)CC1	inactive
O=C(Cn1nc(-c2ccc3c(c2)OCCO3)ccc1=O)Nc1ccc(N2CCOCC2)cc1	inactive
COc1ccc(C2=NO[C@@H]3C(=O)N(c4ccc5c(c4)OCCO5)C(=O)[C@H]23)cc1OC	inactive
CN1C2C=C3C(C#N)=C(N)C(C#N)(C#N)[C@@H](c4ccc(Cl)cc4)[C@@H]3C1CC2 (some centres not stated)	inactive
COCCNC(=O)C(C)OC(=O)c1nsc(Cl)c1Cl (configuration not stated)	inactive
CCOC(=O)CC1=C(C(=O)OCC)C(c2ccc(C)o2)C(C#N)=C(N)O1 (configuration not stated)	inactive
O=C1CS/C(=N\C(=O)N2c3ccccc3Sc3ccccc32)N1	inactive
O=C(NCc1cccnc1)c1ccccc1Br	inactive
C=CCOC(=O)CCC(=O)Nc1cc(OC)nc(OC)n1	inactive
COc1ccc(S(=O)(=O)N2CCCC2C(=O)Nc2ccc(C)cc2)cc1 (configuration not stated)	inactive
CCC1CCCCN1S(=O)(=O)c1ccc(C(=O)Nc2nnc(-c3cccs3)o2)cc1 (configuration not stated)	active
Cc1noc(C)c1C(=O)OCC(=O)Nc1ccccc1C(=O)NC(C)c1ccccc1 (configuration not stated)	inactive
O=C1C2C3C=CC(C3)C2C(=O)N1Cc1ccccc1 (configuration not stated)	inactive
CC1(C)CC(=O)C(C=Nc2ccc3c(c2)OCO3)=C(O)C1	inactive
Cc1ccc(NC(=O)C2CCCN(S(=O)(=O)c3cnc[nH]3)C2)cc1F (configuration not stated)	inactive
Cc1ccc(Nc2nc(CSc3nnnn3C)cs2)cc1	inactive
CSC1=C(C#N)C(c2ccc(Cl)cc2)C2=C(CC(C)(C)CC2=O)N1 (configuration not stated)	inactive
CCn1c(=O)n(CC(=O)NCc2ccccc2OC)c(=O)c2ccccc21	inactive
CCOC(=O)c1c(NC(=O)c2cccs2)sc2c1CCN(C(=O)OCC)C2	active
COc1cccc(Nc2cc(C)nc3ccccc23)c1	inactive
CC(C)(C)C1=C[C@@H](CO)C[C@@H](CO)C1	inactive
CCN(CC)S(=O)(=O)N1CCC(C(=O)NCC2COc3ccccc3O2)CC1 (configuration not stated)	inactive
COC(=O)CC1C(=O)NCCN1C(=O)NC1CCCCC1 (configuration not stated)	inactive
COC(=O)Nc1ccc(S(=O)(=O)N(C)CC(F)(F)C(F)F)cc1	inactive
COc1ccc(N2CCN(C(=O)C(OC(C)=O)c3ccccc3)CC2)cc1 (configuration not stated)	inactive
COc1ccc(C2=Nn3c(nnc3-c3cccnc3)SC2)cc1	inactive
CCc1nnc(NC(=O)c2ccc(COc3ccccc3)o2)s1	inactive
OC(COc1ccccc1)CN1C2=NCCCN2c2ccccc21 (configuration not stated)	inactive
Fc1cccc2sc(N3CCOCC3)nc12	inactive
COC(=O)c1onc(C(=O)c2ccccc2)c1C(=O)OC	inactive
O=C(CN(CCc1ccccc1)C(=O)CN1C(=O)COc2ccccc21)NCc1ccco1	inactive
O=C(Cc1cccs1)Nc1ccccc1C(=O)O	inactive

----------
assay: reversal of MRP1-mediated doxorubicin resistance, pilot screen, H69AR cells, doxorubicin co-treatment (AID 601); details: H69AR cells + 2 uM doxorubicin, CellTiter-Glo, 72 h; measured here: viability with 2 uM doxorubicin; at 10 µM; stronger effect = lower value
READOUT_KIND: viability (%)

COMPOUND	READOUT_KIND	RECORDED_RESULT
O=C(NCc1ccco1)C1CC(=O)N(c2ccc(F)cc2)C1 (configuration not stated)	viability	91.5
COc1ccc(C2(C(=O)N3CCCC3)CCOCC2)cc1OC	viability	87.8
O=C(OCC(=O)c1cccs1)C1=COCCO1	viability	87.6
CC(=O)N1CCC(N(C(=O)Nc2ccc(C)c(C)c2)C2CCCC2)CC1	viability	89.1
CCOC(=O)C1CCN(Cc2c(O)ccc3ccccc23)CC1	viability	92.6
CCOc1cc(C(=O)NCc2ccncc2)cc(OCC)c1OCC	viability	87.7
COC(=O)c1ccc(-c2sc3nc(N4CCOCC4)c4c(c3c2N)CCCC4)o1	viability	92.2

----------
test: growth inhibitors of H69AR lung tumor, primary screen, human, duplicate replicates (AID 580); conditions: H69AR lung tumor cells viability, ATP luminescence, 72 h; at 10 µM; stronger effect = lower value;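 further: 100% = mean luminescence of untreated wells and 0% = no signal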
viability overview

STRUCTURE_STRING	DISPLAY_UNIT	viability
Cc1ccc(Cc2c(C)nc3c(C(=O)O)cnn3c2C)cc1	%	91.9
CC(C)CNS(=O)(=O)c1ccc(CCC(=O)N2CCOCC2)cc1	%	91.3
CCOC(=O)c1cccc(NC(=O)Cn2cnc3c2c(=O)n(C)c(=O)n3C)c1	%	91.2

----------
assay: 384-well plate pilot, post-Golgi transport modulator project, inhibition of yeast transport mutant growth (AID 636); settings: absorbance 615 nm, about 18 h, stronger effect = higher value
READOUT_KIND: inhibition (%)

MOLECULE	RECORDED_RESULT
Cc1ccccc1-c1nc(CS(=O)(=O)CC(=O)NCc2ccc3c(c2)OCO3)c(C)o1	-4.53
CC(Sc1nc(-c2ccccc2)cc(C(F)(F)F)n1)C(=O)N1CCC(C(N)=O)CC1 (centres undefined)	-0.91
Cc1nc2ccccc2c(=O)n1CC(=O)N1CCOCC1	0.67
CC(C)(C)Nc1nc(OCC(F)(F)F)nc(OCC(F)(F)F)n1	-5.26
O=C(OCc1nnc(-c2ccccc2)o1)c1ccc(S(=O)(=O)NCc2ccco2)cc1	-4.87
COCCN(CC(=O)NCc1ccccc1)C(=O)CCC(=O)Nc1ccccn1	-4.8
COc1ccc(OC)c(C2=Nn3c(nnc3C3CCCCC3)SC2)c1	5.92
COc1cc(S(=O)(=O)n2nnc3ccccc32)c(OC)cc1Cl	-2.8
CCCCN(Cc1cc2cc(OC)ccc2[nH]c1=O)C(=O)COc1ccccc1	-0.13
Cc1ccc(SCCNS(=O)(=O)c2ccc(F)cc2)cc1	-6.8
COc1ccc(-n2c(SCCC(=O)O)nnc2-c2ccncc2)cc1	-3.42
COc1ccc(S(=O)(=O)N2CCSC2c2ccccc2)cc1 (centres undefined)	-2.7
O=C(CN1C(=O)CC(c2ccco2)Sc2ccccc21)Nc1ccccc1F (centres undefined)	0
CCCCOc1ccc(NC(=O)Cn2c(=O)ccc3c(C)cc(C)nc32)cc1	-3.55
COc1cc(OC)c(C(=O)Nc2ccc(N(C)C)cc2)cc1OC	-1.84
COc1ccc(-n2ncc3c(NCc4ccccn4)ncnc32)cc1	-1.97
COc1ccc(Cl)cc1C(=O)n1nc(C)cc1C	2.43
COc1ccccc1NC(=O)NC1(C(=O)N2CCC(O)CC2)CCCCC1	-3.9
COc1ccccc1Nc1ncnc2c1cnn2-c1cccc(C)c1	-5.33
O=C(c1ccco1)N1CCN(S(=O)(=O)c2ccc3c(c2)CCN3C(=O)C2CCC2)CC1	-1.71
O=C(CCn1c(=S)[nH]c2ccccc2c1=O)NCC1CCCO1 (centres undefined)	-6.13
O=S(=O)(c1cc(Cl)ccc1Br)N1CCOCC1	-2.99
O=C(c1ccc(Cl)cc1)N1CCCCC(Sc2nnc(-c3ccc4c(c3)OCO4)o2)C1=O (centres undefined)	-6.49
CC(=O)c1ccc(NC2OC(C)C(O)C(O)C2O)cc1 (centres undefined)	2.24
CCC(=O)N1CCc2cc(OC)c(OC)cc2C1COc1ccc(C(=O)OC)cc1 (centres undefined)	-5.33
Cc1ccc2cc(CN(CC3CCCO3)S(=O)(=O)c3ccc4c(c3)OCCO4)c(=O)[nH]c2c1C (centres undefined)	-5.07
CC1(C)Cc2cccc(OCC(O)CN3CCN(c4ccccn4)CC3)c2O1 (centres undefined)	-3.38
O=C1CC(N2CCN(c3cccc(C(F)(F)F)c3)CC2)C(=O)N1c1ccccc1 (centres undefined)	-2.08
Cc1ccc(NC(=O)CSc2nnc(-c3ccncc3)n2C)cc1C	1.08
COc1ccc(S(=O)(=O)N2CN(Cc3ccco3)c3nc4ccccc4nc32)cc1	1.82
O=C(Cn1nnc(-c2ccc(S(=O)(=O)N3CCCC3)cc2)n1)NCC1CCCO1 (centres undefined)	-3.78
Cc1cccc(-c2cc3nc4c(c(N5CCC6(CC5)OCCO6)n3n2)CCCC4)c1	-2.13
CCCNC(=O)c1ccccc1C(=O)NCCC	4.16
CC(NC(=O)c1ccc(F)cc1)C(c1cccs1)N1CCN(C)CC1 (centres undefined)	-6
O=C(O)CCc1ccc(-c2cccs2)o1	-0.26
COc1cc(OC)cc(-n2nnnc2SCC(=O)N2CCCC2)c1	-2.11
Cc1cccc(OCCCc2c(C)n[nH]c2C)c1	5.32
CCN(c1c(C)n(C)n(-c2ccccc2)c1=O)S(C)(=O)=O	-6.76
Cc1ccccc1NC(=O)C1Cc2ccccc2C(=O)O1 (centres undefined)	-4.93
